Test: NCI Yeast Anticancer Drug Screen. Data for the mlh1 rad18 strain (AID 175)
Details: S. cerevisiae mlh1 rad18 strain growth inhibition; at 5.0 µM (retest, dose inferred, filed as 0.5); stronger effect = higher value
This is part of a sample that, as a whole, favours compounds with a hit. Of some 79,000 tested, about 15% had one in any assay.
Where growth inhibition equals or exceeds 10%, the correct label is yes; where it does not, the label is no.

O=C1C=C(c2ccccc2)S(=O)(=O)c2c(O)cccc21 ... yes
O=C(O)C(S(=O)(=O)O)S(=O)(=O)O ... yes
CCOc1c(N=Nc2ccc(OC)cc2)c(-c2ccccc2)nn1C(N)=S ... no
CC(C)[C@@H]1CC[C@@H](C)C[C@H]1OC(=O)NN ... no
O=C(c1ccccc1)c1c(CO[N+](=O)[O-])n([O-])c2ccccc2[n+]1=O ... yes
COc1cccc2c1C(=O)c1c(O)c3c(c(O)c1C2=O)C[C@@](O)(/C(C)=N\NC=O)C[C@@H]3OC1CC(N)C(O)C(C)O1 (some centres undefined) ... no
NC(=O)c1ccccc1C(=O)O ... no
Cc1nc(-c2ccccc2)nc2c1nc(C(C)C)n2Nc1ccccc1 ... no

Determine whether measured growth inhibition meets or exceeds 10% for NC(CCl)=NCC1C2CC3CC(C2)CC1C3 (centres undefined)
yes

What do we get for Cc1cccc(O)c(=O)c1 ?
no

What do we get for COc1ccc2c(c1)CC/C(=C\c1ccc(OCCN(C)C)cc1)C2=O ?
no

What do we get for CSCSCC(CO)NC(=O)/C=C/c1c(C)[nH]c(=O)[nH]c1=O (centres undefined) ?
no

What do we get for Cc1cc2c(c(C(N)=O)c1C)-c1cccc(F)c1C2=O ?
no

What do we get for O=[N+]([O-])c1ccccc1NC1CCN(CCCC2(c3ccc(F)cc3)OCCO2)CC1 ?
yes

What do we get for CC(CCN)(CCN)[N+](=O)[O-] ?
no
